System: HT29 colon
assay: NCI tumour cell line growth inhibition, 48 h
quantity_name: TGI (µM)
Answers are plain numbers, in µM.

Consider the following items and state reported TGI for each.
1. N=C(N)c1ccc(-c2ccc(-c3cccs3)s2)nc1
2. O=C(/C=C/c1ccc(C(F)(F)F)cc1)c1ccc(Nc2nc(NCCO)nc(N3CCOCC3)n2)cc1
3. O=C1/C(=C/c2ccc(Cl)cc2)COc2ccc(O)c(O)c21

Key:
3.83
4.51
3.98

###

Tested on: KM20L2 colon
assay: NCI tumour cell line growth inhibition, 48 h
quantity_name: TGI

C/C(=N\O)C(CN1CCCCC1)C(c1ccccc1)c1c(O)c2ccccc2oc1=O (stereo unspecified); > 100 µM
CC[C@](C)(O)C(=O)O[C@H]1C(=O)O[C@@H]2C[C@H]3C(C)=C[C@H](O)[C@@H](O)[C@]3(C)[C@H]3[C@@]4(O)OC[C@]32[C@@H]1[C@@H](C)[C@H]4O; 189 µM

Would you mind listing TGI for each of the following molecules?
1. CS/C(c1ccccc1)=[N+](/C)[O-]
2. C[CH2][Sn]([CH2]C)([O]C(=O)c1cccc(F)c1)[O][Sn]([CH2]C)([CH2]C)[O]C(=O)c1cccc(F)c1
3. Nc1nc(Cl)cc(NCCCCCCCCCCCCNc2cc(Cl)nc(N)n2)n1

Key:
> 100 µM
> 100 µM
> 100 µM

Dear reader, for each entry below, please note its TGI.
1. C/C(=C\CC[C@]1(C)OC(C)(C)OC1CC/C(C)=C/CO[Si](c1ccccc1)(c1ccccc1)C(C)(C)C)CC/C=C/CO[Si](C)(C)C(C)(C)C (stereo partly specified)
2. O=P1(O)c2ccccc2Nc2cc(C(F)(F)F)ccc21

Key:
1: > 100 µM; 2: > 100 µM

Please give TGI, item by item, for the list that follows.
1. Cc1ccc(/C=C2\CCCC\C2=N\O)cc1
2. C=CCCCCCC(O)C(O)C/C=C\C/C=C\CC (stereo unspecified)
3. Clc1ccc(SCCCCCCCCCCSc2ccc(Cl)cc2)cc1
4. CC1=NN(C(=O)c2ccc(Cl)cc2)C(=O)/C1=C/c1ccc(O)cc1

Key:
> 100 µM
> 18.8 µM
> 87 µM
> 100 µM

Required: TGI, one value per molecule below.
1. CCN(CC)c1cccc2c1C1(O)CCC3(CC21)OCCCCO3 (stereo unspecified)
2. O=C(N/C(=C\c1ccc(Oc2ccc(Cl)c(Cl)c2)cc1)c1nc2ccccc2[nH]1)c1ccccc1

Key:
1. > 100 µM
2. 37.2 µM

###

Tested on: A549 NSCLC
assay: NCI tumour cell line growth inhibition, 48 h
quantity_name: TGI

CC1=NN(C(=O)c2ccccc2O)C(c2ccccc2Cl)C1C(=O)Nc1ccccc1 (centres undefined); > 100 µM
NCCCCN(Cc1nc2ccccc2[nH]1)[C@H]1CCCc2cccnc21; 44.4 µM
C/C=C/C=C\C1OC(O)([C@H](CC)C(=O)NC/C=C/C=C(\C)[C@H](OC)C(C)C2OC(\C=C/C=C/C=C(\C)C(=O)c3c(O)ccn(C)c3=O)[C@H](O)[C@@H]2O)C(O)C(O)C1(C)C (some centres undefined); > 100 µM

Exercise: Fill in reported TGI for this entry: CO/N=C(/C(=O)OC)c1ccccc1COc1cccc(C(F)(F)F)c1
Key: > 100 µM
